Listing: area under the dose-response curve of selected compounds
# Test system: SB.mhdgc-1
# protocol_details: area under the dose-response curve of % viability (trapezoidal, 11 doses) (% viability x log10 concentration); higher = less cytotoxic
# run_parameters: SB.mhdgc-1 (hereditary c.1380delA CDH1 gastric cancer)
Structures can show the parent of a compound that is named as a salt.
Answer using only a numeral; do not append any unit.

CN(C)CC(C)(C)CNc1nn2c(-c3ccccc3)nnc2cc1C1CCC1 [Akt-I-1] (top concentration 46.0829 µM) : 381
Nc1ncnc2nc(-c3ccc(N4CCOCC4)nc3)cc(-c3cccc(Br)c3)c12 [ABT-702] (top concentration 46.0829 µM) : 596
COc1ccc(CCC(=O)Nc2nc3ccc(Cl)cc3s2)cc1OC (top concentration 46.0829 µM) : 564
Cc1ncc([N+](=O)[O-])n1CC(C)O (configuration not stated) [Secnidazole] (top concentration 46.0829 µM) : 513
CN1[C@@H]2CC[C@H]1CC(OC(=O)c1c[nH]c3ccccc13)C2 (some centres not stated) [Tropisetron] (top concentration 46.0829 µM) : 559

query: Quick one: area under the dose-response curve of c1cc(CN2CCCNCCNCCCNCC2)ccc1CN1CCCNCCNCCCNCC1 [Plerixafor hydrochloride] (top concentration 46.0829 µM) ?
result: 579

query: Follow-up entry: CC1(C)CC(=O)c2c(C(F)(F)F)nn(-c3ccc(C(N)=O)c(NC4CCC(O)CC4)c3)c2C1 (configuration not stated) [SNX-2112] (top concentration 46.0829 µM)
result: 362

query: Same question for C[C@@]12C[C@@]3(O)O[C@@H](O1)[C@]1(COC(=O)c4ccccc4)[C@H]3C[C@@]12O[C@@H]1O[C@H](CO)[C@@H](O)[C@H](O)[C@H]1O [Paeoniflorin] (top concentration 46.0829 µM) please.
result: 500

query: Same lookup for CC(=O)[C@H]1CC[C@H]2[C@@H]3CCC4=CC(=O)CC[C@]4(C)[C@H]3CC[C@]12C [Progesterone] (top concentration 46.0829 µM) , please.
result: 434

query: Another compound: OCCN1C[C@H](O)[C@@H](O)[C@H](O)[C@H]1CO [Miglitol] (top concentration 46.0829 µM)
result: 529

query: Field entry: COc1cc2nccc(Oc3ccc(NC(=O)C4(C(=O)Nc5ccc(F)cc5)CC4)cc3)c2cc1OC [Cabozantinib] (top concentration 46.0829 µM)
result: 418

query: // same read-out, input: Nc1ncnc2c1ncn2[C@@H]1O[C@H](CO)C[C@H]1O [Cordycepin] (top concentration 46.0829 µM)
result: 501
